# TGT: HLA A*3201 (Homo sapiens, UniProt P04439, A270S/D101S/D185E/E176V/E277Q/F133L/G103R/G107R/G231S/H175R/I121M/I218V/I322F/K168Q/L105A/L300P/L318F/M331R/P208A/P217A/Q94H/R106L/R138Q/S129P/T104I/T323A/T345S/V100E/V321M/V358M)
# PROCEDURE SUMMARY: biochemical
Where a SMILES comes first, the peptide text is derived from it.

>  <MOLECULE>
CC[C@H](C)[C@H](NC(=O)[C@H](CC(C)C)NC(=O)[C@H](CC(N)=O)NC(=O)[C@H](C)NC(=O)[C@H](Cc1ccccc1)NC(=O)[C@H](CCCNC(=N)N)NC(=O)[C@H](CO)NC(=O)[C@@H](NC(=O)[C@@H](N)CCCNC(=N)N)[C@@H](C)CC)C(=O)O [3102.0360] (H-RISRFANLI-OH)

>  <IC50 / nM>
6.2

$$$$
>  <MOLECULE>
CC[C@H](C)[C@H](NC(=O)[C@H](CC(C)C)NC(=O)[C@H](Cc1c[nH]cn1)NC(=O)[C@@H](N)CCCNC(=N)N)C(=O)N[C@@H](Cc1ccccc1)C(=O)N[C@@H](CO)C(=O)N[C@@H](Cc1ccc(O)cc1)C(=O)N[C@@H](C)C(=O)N[C@@H](Cc1ccccc1)C(=O)O [3102.0393] (H-RHLIFSYAF-OH)

>  <IC50 / nM>
14

$$$$
>  <MOLECULE>
CC[C@H](C)[C@H](NC(=O)[C@H](CO)NC(=O)[C@@H](NC(=O)[C@H](CCCCN)NC(=O)CNC(=O)[C@H](Cc1ccccc1)NC(=O)[C@H](Cc1ccccc1)NC(=O)[C@@H](NC(=O)[C@@H](N)CCCNC(=N)N)[C@@H](C)CC)[C@@H](C)O)C(=O)O [3102.0433] (H-RIFFGKTSI-OH)

>  <IC50 / nM>
1.3

$$$$
>  <MOLECULE>
CC[C@H](C)[C@H](NC(=O)[C@@H](NC(=O)[C@@H](NC(=O)[C@H](CCCCN)NC(=O)[C@H](CC(N)=O)NC(=O)[C@H](CC(N)=O)NC(=O)[C@H](C)NC(=O)[C@H](CC(C)C)NC(=O)[C@@H](N)CCCNC(=N)N)C(C)C)[C@@H](C)O)C(=O)O [3102.0434] (H-RLANNKVTI-OH)

>  <IC50 / nM>
1.5

$$$$
>  <MOLECULE>
CC[C@H](C)[C@H](NC(=O)[C@H](CO)NC(=O)[C@@H](N)CCCCN)C(=O)N[C@@H](CC(N)=O)C(=O)N[C@H](C(=O)N[C@@H](CCC(=O)O)C(=O)N[C@@H](Cc1ccc(O)cc1)C(=O)N[C@@H](CCCNC(=N)N)C(=O)N[C@@H](Cc1ccccc1)C(=O)O)C(C)C [3102.0364] (H-KSINVEYRF-OH)

>  <IC50 / nM>
1.5

$$$$
>  <MOLECULE>
CC[C@H](C)[C@H](NC(=O)[C@H](Cc1ccccc1)NC(=O)[C@H](CCCCN)NC(=O)[C@@H](NC(=O)[C@H](Cc1ccc(O)cc1)NC(=O)[C@H](CCC(N)=O)NC(=O)[C@@H](NC(=O)[C@@H](N)CC(C)C)C(C)C)[C@@H](C)CC)C(=O)N[C@@H](Cc1ccccc1)C(=O)O [3102.0413] (H-LVQYIKFIF-OH)

>  <IC50 / nM>
20

$$$$
>  <MOLECULE>
CSCC[C@H](NC(=O)[C@H](Cc1ccc(O)cc1)NC(=O)[C@H](CC(C)C)NC(=O)[C@@H](N)CC(C)C)C(=O)N[C@@H](Cc1ccccc1)C(=O)N1CCC[C@H]1C(=O)N[C@@H](CC(N)=O)C(=O)N[C@@H](CC(C)C)C(=O)N[C@@H](Cc1ccccc1)C(=O)O [3102.1335] (H-LLYMFPNLF-OH)

>  <IC50 / nM>
90

$$$$

----------
# TGT: HLA B*1501 (Homo sapiens, UniProt P01889, A329T/A93T/A95T/C349S/D201E/D98Y/E187L/E204Q/E69M/E70A/K202T/N87E/Q94N/R155S/R180W/S121R/S35A/S48A/V306I/V36M/Y140S/Y91S)
# PROCEDURE SUMMARY: biochemical
pIC50: −log10 of the molar value. Where a SMILES comes first, the peptide text is derived from it.
pIC50 by entry:
PARAMETER: pIC50

>  <COMPOUND>
CC[C@H](C)[C@H](NC(=O)[C@H](CS)NC(=O)[C@H](CCCNC(=N)N)NC(=O)[C@H](Cc1c[nH]cn1)NC(=O)[C@H](CC(C)C)NC(=O)[C@@H](N)CC(C)C)C(=O)N[C@@H](Cc1ccc(O)cc1)C(=O)N[C@@H](Cc1c[nH]cn1)C(=O)N[C@@H](Cc1ccc(O)cc1)C(=O)O [3102.0866] (H-LLHRCIYHY-OH)

>  <OBSERVED MEASUREMENT>
7.37

$$$$
>  <COMPOUND>
CC[C@H](C)[C@H](NC(=O)[C@@H](N)Cc1ccccc1)C(=O)N[C@@H](CCCNC(=N)N)C(=O)N[C@@H](Cc1ccc(O)cc1)C(=O)N[C@@H](CCCNC(=N)N)C(=O)N[C@@H](CCSC)C(=O)N[C@@H](Cc1c[nH]cn1)C(=O)N1CCC[C@H]1C(=O)N[C@@H](CCSC)C(=O)O [3102.0768] (H-FIRYRMHPM-OH)

>  <OBSERVED MEASUREMENT>
8.92

$$$$
>  <COMPOUND>
CC(C)C[C@H](NC(=O)[C@H](Cc1ccc(O)cc1)NC(=O)[C@H](Cc1ccccc1)NC(=O)[C@@H](NC(=O)[C@H](CC(N)=O)NC(=O)[C@H](CCCCN)NC(=O)[C@H](CO)NC(=O)[C@@H](N)CC(C)C)[C@@H](C)O)C(=O)N[C@@H](Cc1ccccc1)C(=O)O [3102.0952] (H-LSKNTFYLF-OH)

>  <OBSERVED MEASUREMENT>
7.85

$$$$
>  <COMPOUND>
CC[C@H](C)[C@H](NC(=O)[C@H](CO)NC(=O)[C@@H](N)CCSC)C(=O)N[C@H](C(=O)N[C@@H](CO)C(=O)N[C@@H](Cc1ccccc1)C(=O)N[C@@H](Cc1ccccc1)C(=O)N1CCC[C@H]1C(=O)N[C@@H](Cc1ccccc1)C(=O)O)[C@@H](C)CC [3102.0947] (H-MSIISFFPF-OH)

>  <OBSERVED MEASUREMENT>
9.77

$$$$
>  <COMPOUND>
CSCC[C@H](N)C(=O)N[C@@H](CC(C)C)C(=O)N[C@@H](CC(N)=O)C(=O)N[C@H](C(=O)N[C@@H](Cc1ccc(O)cc1)C(=O)NCC(=O)N[C@@H](CCC(=O)O)C(=O)NCC(=O)N[C@@H](Cc1ccccc1)C(=O)O)[C@@H](C)O [3102.0822] (H-MLNTYGEGF-OH)

>  <OBSERVED MEASUREMENT>
8.64

$$$$
>  <COMPOUND>
CC(C)C[C@H](NC(=O)[C@H](CCC(=O)O)NC(=O)[C@@H]1CCCN1C(=O)[C@@H](NC(=O)[C@H](Cc1ccc(O)cc1)NC(=O)[C@@H](NC(=O)[C@@H](N)Cc1ccccc1)C(C)C)C(C)C)C(=O)N[C@@H](CO)C(=O)N[C@@H](Cc1ccccc1)C(=O)O [3102.1280] (H-FVYVPELSF-OH)

>  <OBSERVED MEASUREMENT>
9.02

$$$$
>  <COMPOUND>
CC[C@H](C)[C@H](NC(=O)CNC(=O)[C@@H](NC(=O)[C@H](CCCCN)NC(=O)[C@@H](NC(=O)[C@@H](N)CCC(=O)O)[C@@H](C)CC)[C@@H](C)O)C(=O)N[C@@H](CO)C(=O)N[C@@H](CO)C(=O)N[C@@H](Cc1ccccc1)C(=O)O [3102.0969] (H-EIKTGISSF-OH)

>  <OBSERVED MEASUREMENT>
7.05

$$$$

----------
# TGT: HLA B*5801 (Homo sapiens, UniProt P01889, A329T/C349S/D201E/D98Y/E176V/E187L/E204Q/E69T/G107R/I218V/I90N/K202T/L105A/L119I/N104I/N87E/Q89R/Q94S/R106L/R155S/R180L/R86G/S101N/S121R/S35A/S48A/T118I/V127L/V306I/V36M/Y140S/Y91M)
# Type: binding
Each entry falls in a class defined on Normalized average relative binding affinity (ARB), HLA B*5801; the bands are lower level (below 0.06), middle level (0.06 to below 0.3), upper level (0.3 or more)

>  <ITEM SEQUENCE>
XXIXXXXXX [3064.0048]

>  <CATEGORY LABEL>
upper level

$$$$
>  <ITEM SEQUENCE>
IXXXXXXXX [3064.0008]

>  <CATEGORY LABEL>
upper level

$$$$
>  <ITEM SEQUENCE>
XXPXXXXXX [3064.0053]

>  <CATEGORY LABEL>
lower level

$$$$
>  <ITEM SEQUENCE>
RXXXXXXXX [3064.0015]

>  <CATEGORY LABEL>
upper level

$$$$
>  <ITEM SEQUENCE>
XRXXXXXXX [3064.0035]

>  <CATEGORY LABEL>
lower level

$$$$
>  <ITEM SEQUENCE>
DXXXXXXXX [3064.0003]

>  <CATEGORY LABEL>
lower level

$$$$
>  <ITEM SEQUENCE>
XXNXXXXXX [3064.0052]

>  <CATEGORY LABEL>
upper level

$$$$
>  <ITEM SEQUENCE>
KXXXXXXXX [3064.0009]

>  <CATEGORY LABEL>
upper level

$$$$
>  <ITEM SEQUENCE>
XDXXXXXXX [3064.0023]

>  <CATEGORY LABEL>
lower level

$$$$
>  <ITEM SEQUENCE>
XIXXXXXXX [3064.0028]

>  <CATEGORY LABEL>
lower level

$$$$
>  <ITEM SEQUENCE>
XPXXXXXXX [3064.0033]

>  <CATEGORY LABEL>
lower level

$$$$
>  <ITEM SEQUENCE>
XXTXXXXXX [3064.0057]

>  <CATEGORY LABEL>
upper level

$$$$
>  <ITEM SEQUENCE>
XXEXXXXXX [3064.0044]

>  <CATEGORY LABEL>
middle level

$$$$
>  <ITEM SEQUENCE>
XXVXXXXXX [3064.0058]

>  <CATEGORY LABEL>
upper level

$$$$
>  <ITEM SEQUENCE>
XEXXXXXXX [3064.0024]

>  <CATEGORY LABEL>
lower level

$$$$
>  <ITEM SEQUENCE>
XXCXXXXXX [3064.0042]

>  <CATEGORY LABEL>
middle level

$$$$
>  <ITEM SEQUENCE>
XSXXXXXXX [3064.0036]

>  <CATEGORY LABEL>
upper level

$$$$
>  <ITEM SEQUENCE>
XAXXXXXXX [3064.0021]

>  <CATEGORY LABEL>
upper level

$$$$
>  <ITEM SEQUENCE>
XXXCXXXXX [3064.0062]

>  <CATEGORY LABEL>
middle level

$$$$
>  <ITEM SEQUENCE>
XTXXXXXXX [3064.0037]

>  <CATEGORY LABEL>
upper level

$$$$
>  <ITEM SEQUENCE>
EXXXXXXXX [3064.0004]

>  <CATEGORY LABEL>
lower level

$$$$
>  <ITEM SEQUENCE>
YXXXXXXXX [3064.0020]

>  <CATEGORY LABEL>
middle level

$$$$
>  <ITEM SEQUENCE>
XXDXXXXXX [3064.0043]

>  <CATEGORY LABEL>
middle level

$$$$
>  <ITEM SEQUENCE>
XXRXXXXXX [3064.0055]

>  <CATEGORY LABEL>
lower level

$$$$
>  <ITEM SEQUENCE>
QXXXXXXXX [3064.0014]

>  <CATEGORY LABEL>
middle level

$$$$
>  <ITEM SEQUENCE>
FXXXXXXXX [3064.0005]

>  <CATEGORY LABEL>
upper level

$$$$
>  <ITEM SEQUENCE>
XWXXXXXXX [3064.0039]

>  <CATEGORY LABEL>
lower level

$$$$
>  <ITEM SEQUENCE>
GXXXXXXXX [3064.0006]

>  <CATEGORY LABEL>
middle level

$$$$
>  <ITEM SEQUENCE>
XXHXXXXXX [3064.0047]

>  <CATEGORY LABEL>
middle level

$$$$
